# credit: a collection of fitness landscapes (doi:10.1016/j.celrep.2020.107928)

Attribute: one-hybrid fitness for binding NBS DNA
B1: Caulobacter ParB omega fusion; a variant is named by its letters at X, in order, B8GW30 (parent)
chain: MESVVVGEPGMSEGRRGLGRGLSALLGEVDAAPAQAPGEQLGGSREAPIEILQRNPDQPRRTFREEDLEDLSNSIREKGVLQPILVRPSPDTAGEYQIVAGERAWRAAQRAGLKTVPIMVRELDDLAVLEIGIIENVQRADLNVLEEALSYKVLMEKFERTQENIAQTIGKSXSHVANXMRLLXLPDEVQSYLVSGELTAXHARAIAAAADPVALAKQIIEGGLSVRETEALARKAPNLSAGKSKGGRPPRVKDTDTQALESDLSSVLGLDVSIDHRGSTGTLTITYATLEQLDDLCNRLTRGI

Variants of: B1
Assay name: one-hybrid fitness for binding NBS DNA (the Noc-binding site; scaled: cognate 1, non-cognate 0); higher = stronger binding
Test settings: with NBS DNA site
Over roughly 81,000 sequences, “one-hybrid fitness for binding NBS DNA” has its median near -0.1; the highest 2% begin near 0.36. Many of the other results were omitted from the sample, so the highest values are more common in it than they were.

Consider the following illustrative entries.
Residue change: HNER
one-hybrid fitness for binding NBS DNA: ≤ 0.2
--
Residue change: RFGS
one-hybrid fitness for binding NBS DNA: ≤ 0.2
--
Residue change: RYAC
one-hybrid fitness for binding NBS DNA: ≤ 0.2
--
Residue change: QYIT
one-hybrid fitness for binding NBS DNA: 0.355
--
Residue change: DNCR
one-hybrid fitness for binding NBS DNA: ≤ 0.2

Per the records, this variant ( QLLP ) has one-hybrid fitness for binding NBS DNA equal to ≤ 0.2

Per the records, this variant ( RRNS ) has one-hybrid fitness for binding NBS DNA equal to 0.678

Per the records, this variant ( RRHD ) has one-hybrid fitness for binding NBS DNA equal to ≤ 0.2

Per the records, this variant ( RFAL ) has one-hybrid fitness for binding NBS DNA equal to ≤ 0.2

Per the records, this variant ( QLLS ) has one-hybrid fitness for binding NBS DNA equal to ≤ 0.2

Per the records, this variant ( SVIR ) has one-hybrid fitness for binding NBS DNA equal to ≤ 0.2

Per the records, this variant ( TNLI ) has one-hybrid fitness for binding NBS DNA equal to ≤ 0.2

Per the records, this variant ( RRHN ) has one-hybrid fitness for binding NBS DNA equal to 0.331

Per the records, this variant ( QFAR ) has one-hybrid fitness for binding NBS DNA equal to ≤ 0.2

Per the records, this variant ( QRFY ) has one-hybrid fitness for binding NBS DNA equal to 0.392

Per the records, this variant ( GATD ) has one-hybrid fitness for binding NBS DNA equal to ≤ 0.2

Per the records, this variant ( KCMR ) has one-hybrid fitness for binding NBS DNA equal to ≤ 0.2

Per the records, this variant ( QYCG ) has one-hybrid fitness for binding NBS DNA equal to ≤ 0.2

Per the records, this variant ( RRHP ) has one-hybrid fitness for binding NBS DNA equal to ≤ 0.2

Per the records, this variant ( RTRP ) has one-hybrid fitness for binding NBS DNA equal to ≤ 0.2
